# credit: PubChem BioAssay (NCI)

The entries below come with measured TGI values attached.
System: CAKI-1 renal
assay: NCI tumour cell line growth inhibition, 48 h

CC12CCC3C(CC=C4CC(O)CCC43C)C1C/C(=C\N1CCCC1)C2=O (stereo unspecified)    > 100 µM

Given the entry CCOc1ccc(N=Cc2cccc3cccnc23)cc1 , what TGI was observed with CAKI-1 renal?
> 100 µM

Would you kindly repeat that for CC(C)N(C(=O)C12C3C4C5(C#N)C3C1(I)C5C42I)C(C)C (stereo unspecified) ?
> 100 µM

Would you kindly repeat that for Cc1c(C#N)cccc1-c1cc(-c2cn(Cc3cccc(C(C)(C)O)n3)nn2)nc(N)n1 ?
> 100 µM

Would you kindly repeat that for CC(=O)CCCCCCCCCCCC[C@@H]1CC[C@H](C)[C@H](O)N1 ?
> 100 µM

Would you kindly repeat that for C=C1C(=O)O[C@H]2[C@H]1CC/C(COC(=O)/C=C/C(=O)OC/C1=C/CC[C@@]3(C)O[C@H]3[C@H]3OC(=O)C(=C)[C@@H]3CC1)=C\CC[C@@]1(C)O[C@@H]21 ?
3.43 µM

Would you kindly repeat that for O=[N+]([O-])c1cccc([N+](=O)[O-])c1Cl ?
7.68 µM
